# maps each entry to its Kd
Molecular target: T1, PUF4 RNA-binding domain (Saccharomyces cerevisiae, UniProt P25339 537-888)
T1 sequence: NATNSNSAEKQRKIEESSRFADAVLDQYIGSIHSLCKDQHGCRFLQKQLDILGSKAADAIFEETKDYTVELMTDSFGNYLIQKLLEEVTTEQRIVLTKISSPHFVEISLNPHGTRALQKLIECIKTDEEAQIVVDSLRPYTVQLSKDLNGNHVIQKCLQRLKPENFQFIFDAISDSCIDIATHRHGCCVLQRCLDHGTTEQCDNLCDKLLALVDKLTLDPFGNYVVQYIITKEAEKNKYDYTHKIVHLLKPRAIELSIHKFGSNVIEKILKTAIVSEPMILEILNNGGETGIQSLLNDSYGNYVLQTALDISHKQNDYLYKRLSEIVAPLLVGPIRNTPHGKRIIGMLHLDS
Assay: Mg; RNA-MaP; 20 mM Na-HEPES pH 7.4, 30 mM KOAc, 0.75 mM MgCl2, 0.1% Tween-20, 5% glycerol, 0.1 mg/mL BSA, 2 mM DTT; 25 C; 0.0125-409.6 nM protein
Conditions: tags: N-His6-TEV cleaved; C-SNAP kept, Cy3B-labelled; label: tethered on chip by stalled RNA polymerase
assayMetric: Kd (nM)

INSERT INTO results (binder, readoutnumber) VALUES
  ('Ic_S4_P4E.1_K4.1_C4.1_H4.1_A4.1_[A6T]_[T7G]_F4.1_[A9G]_T4.1 (ssRNA) RNA: UUUGACAACUGAUCGUUCUUUCUUGUAUUGUGUUCUUUCUCGAUCAGUUGUCUUU', 75.1),
  ('Ic_S4_P5E.1_K5.1_C5.1_H5.1_A5.1_[T5C]_[T6C]_F5.1_[T8A]_[T9A]_[A10C]_T5.1 (ssRNA) RNA: UUUGACAACUGAUCGUUCUUUCUUGUACCAAACUUCUUUCUCGAUCAGUUGUCUUU', 158),
  ('Id_ii_S2_P3E.3_K3.2_C3.2_H3.2_A3.1_F3.1_T3.2_[A10C] (ssRNA) RNA: UUUGAUUAAUAUGAUAUCGUUCUUUCUCUUAUAUAUAUCUUCUUUCUCGAUAUCAUAUUAAUCUUU', 83.2),
  ('Id_ii_S4_P3E.3_K3.2_C3.2_[C-2T]_[T-1G]_H3.2_A3.1_F3.1_T3.2_[T9G]_[A10C] (ssRNA) RNA: UUUGACAACUGAUCGUUCUUUCUUGUAUAUAUAGCUUCUUUCUCGAUCAGUUGUCUUU', 2.89),
  ('Ie_S2_P4E.1_K4.1_C4.1_H4.1_A4.1_[+5CC]_F4.1_T4.1 (ssRNA) RNA: UUUGAUUAAUAUGAUAUCGUUCUUUCUUGUAUCCAUUAUUCUUUCUCGAUAUCAUAUUAAUCUUU', 20.2),
  ('Ie_S2_P4E.1_K4.1_C4.1_H4.1_A4.1_F4.1_[+8CCTCT]_T4.1 (ssRNA) RNA: UUUGAUUAAUAUGAUAUCGUUCUUUCUUGUAUAUUCCUCUAUUCUUUCUCGAUAUCAUAUUAAUCUUU', 4.43),
  ('UCUCUUUGUAACGUUCUCUU (ssRNA) [Ic_S1_P3E.1_K3.1_C3.1_H3.1_A3.1_[T5A]_[A6C]_F3.1_[T7G]_[A8T]_T3.1]', 534),
  ('Ie_S2_P4E.1_K4.1_C4.1_H4.1_[+4TCC]_A4.1_F4.1_T4.1 (ssRNA) RNA: UUUGAUUAAUAUGAUAUCGUUCUUUCUUGUAUCCUAUUAUUCUUUCUCGAUAUCAUAUUAAUCUUU', 2.35),
  ('Ic_S4_P4E.1_K4.1_C4.1_H4.1_A4.1_[T5G]_[A6T]_[T7A]_F4.1_[T8A]_T4.1 (ssRNA) RNA: UUUGACAACUGAUCGUUCUUUCUUGUAGUAAAUUCUUUCUCGAUCAGUUGUCUUU', 445),
  ('Id_ii_S2_P4E.3_K4.2_C4.2_[C-2T]_H4.2_A4.1_F4.1_T4.2_[G10A]_[T11G] (ssRNA) RNA: UUUGAUUAAUAUGAUAUCGUUCUUUCUUUUAUAUAUUAAGUUCUUUCUCGAUAUCAUAUUAAUCUUU', 700),
  ('UCUCUUUGUACUCCGUCUCUU (ssRNA) [Ic_S1_P4E.1_K4.1_C4.1_H4.1_A4.1_[T5C]_[A6T]_[T7C]_F4.1_[T8C]_[A9G]_T4.1]', 969),
  ('Ie_S2_P4E.1_K4.1_C4.1_H4.1_A4.1_[+5CTCT]_F4.1_T4.1 (ssRNA) RNA: UUUGAUUAAUAUGAUAUCGUUCUUUCUUGUAUCUCUAUUAUUCUUUCUCGAUAUCAUAUUAAUCUUU', 4.51),
  ('Ic_S2_P4E.1_K4.1_C4.1_H4.1_A4.1_[T5C]_[A6T]_[T7G]_F4.1_[T8C]_T4.1 (ssRNA) RNA: UUUGAUUAAUAUGAUAUCGUUCUUUCUUGUACUGCAUUCUUUCUCGAUAUCAUAUUAAUCUUU', 753),
  ('UCUCUUUGUAUACUAGUCUCUU (ssRNA) [Ic_S1_P5E.1_K5.1_C5.1_H5.1_A5.1_[T6A]_[A7C]_F5.1_[T9A]_[A10G]_T5.1]', 0.331);
